- System: 624824-186-R-J2-PDC multicell spheroids, viability;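 also: spheroids exposed to agents for 7 days before viability read; 100% = DMSO vehicle treated spheroids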
- Assay Details: Anticancer human tumor 624824-186-R-J2-PDC patient-derived colon adenocarcinoma cell line growth inhibition [PI3K]
- Condition Summary: second compound 3.16 µM; first compound 3.16 µM; active compounds read low
Measure Name: viability, T/C (%)
State just the number; it will be interpreted in %.

{"Compound": "Cn1nccc1Nc1nccc(-c2ccn(C(CO)c3ccc(Cl)c(F)c3)c(=O)c2)n1 (stereo not given) + Cc1nc(NC(=O)N2CCCC2C(N)=O)sc1-c1ccnc(C(C)(C)C(F)(F)F)c1", "Measure Name": "viability, T/C", "Unit Of Measurement": "%", "Endpoint Result": 44.2}
{"Compound": "Cn1ncc(Cl)c1-c1cc(C(=O)NC(CN)Cc2cccc(F)c2)sc1Cl (stereo not given) + CC(Nc1ncnc2nc[nH]c12)c1cc2cccc(Cl)c2c(=O)n1-c1ccccc1", "Measure Name": "viability, T/C", "Unit Of Measurement": "%", "Endpoint Result": 69.8}
{"Compound": "CC1(C)CCC(CN2CCN(c3ccc(C(=O)NS(=O)(=O)c4ccc(NCC5CCOCC5)c([N+](=O)[O-])c4)c(Oc4cnc5[nH]ccc5c4)c3)CC2)=C(c2ccc(Cl)cc2)C1 + CC(Nc1ncnc2nc[nH]c12)c1cc2cccc(Cl)c2c(=O)n1-c1ccccc1", "Measure Name": "viability, T/C", "Unit Of Measurement": "%", "Endpoint Result": 86}

QUERY: So what does the record say about viability, T/C for CC1(C)CCC(Nc2ncc(C(F)(F)F)c(-c3c[nH]c4c(P(C)(C)=O)c(C#N)ccc34)n2)CN1 (stereo not given) + Cc1nc(NC(=O)N2CCCC2C(N)=O)sc1-c1ccnc(C(C)(C)C(F)(F)F)c1 ?
RESULT: 57.3

QUERY: So what does the record say about viability, T/C for CC(Cn1ccc(-c2ccc(C#N)c(Cl)c2)n1)NC(=O)c1cc(C(C)O)[nH]n1 (stereo not given) + Cc1nc(NC(=O)N2CCCC2C(N)=O)sc1-c1ccnc(C(C)(C)C(F)(F)F)c1 ?
RESULT: 80.2
